Each recorded value in this set is attributed to ChEMBL document CHEMBL4130341.

target: UniProtKB Q60795; test: Activation of Nrf2 in wild type mouse Hepa1c1c7 cells cytosolic fraction assessed as induction of quinone reductase activity using 2,6-DCIP as substrate in presence of NADH incubated for 48 hrs measured for 1 min
Sequence (Q60795 whole entry): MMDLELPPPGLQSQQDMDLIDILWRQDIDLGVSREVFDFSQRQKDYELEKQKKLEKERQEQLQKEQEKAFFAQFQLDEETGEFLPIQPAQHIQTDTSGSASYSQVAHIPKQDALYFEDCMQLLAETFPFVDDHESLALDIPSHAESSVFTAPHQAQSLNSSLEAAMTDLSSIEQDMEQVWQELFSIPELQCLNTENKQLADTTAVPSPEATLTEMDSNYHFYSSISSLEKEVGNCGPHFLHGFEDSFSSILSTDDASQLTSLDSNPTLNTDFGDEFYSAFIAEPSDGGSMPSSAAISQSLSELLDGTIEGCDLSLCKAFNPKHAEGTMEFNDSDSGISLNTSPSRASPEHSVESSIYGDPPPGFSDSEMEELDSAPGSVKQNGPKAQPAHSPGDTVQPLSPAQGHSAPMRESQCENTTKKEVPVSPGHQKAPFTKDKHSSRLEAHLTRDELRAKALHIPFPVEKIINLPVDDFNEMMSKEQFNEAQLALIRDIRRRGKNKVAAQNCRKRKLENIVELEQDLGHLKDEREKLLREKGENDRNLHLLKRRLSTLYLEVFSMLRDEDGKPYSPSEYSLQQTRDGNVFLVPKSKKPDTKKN
# log10(CD) per record follows
READOUT_LABEL: log10(CD) (log10 of the value in µM)

>>> reported_value("CC(C)(C)c1cc(O)ccc1O [E319]")
0.00
>>> reported_value("O=C(/C=C/c1cccnc1Br)c1ccccc1O")
1.15
>>> reported_value("O=C(/C=C/c1ccc2ccccc2c1)c1ccccc1O")
-0.30
>>> reported_value("O=C(/C=C/c1cccc2ccccc12)c1ccccc1O")
1.04
>>> reported_value("O=c1cc(-c2ccc(Br)cc2)oc2ccccc12")
-0.10
